test system: Bacillus subtilis; test: cleaved RNA product abundance (RNA/gDNA barcode ratio) relative to median wild-type variant (ratio to wild type); higher = more accumulation of the downstream cleavage product; details: experiment (reporter, strain, medium): exp 2b: truncated aprE reporter, strain BJT200; cleavage site: cggR-gapA (positions -7 to +36 mutated)
// label = Criterion met if cleaved RNA product abundance is not less than 0.5, otherwise Criterion not met

sequence string | assay system | class label
ACAGACGAAGGAGCCGCAAAGAAGTTATTAATAGATGAATAATCCCTCAATATAAATATCTCTCACTTATTTAAA | Bacillus subtilis | Criterion not met
ACAGACGAAGGAGCCGCAAAGAAGTTATTAAGGGATGAATAAACCCTCAATATAAATGTCTCTCACTTATTTAAA | Bacillus subtilis | Criterion not met
ACAGACGAAGGAGCCGCAAAGACGTTATTAAGGGATGAATAATCCCTCAATATAAATATCTCTCACTTATTTAAA | Bacillus subtilis | Criterion met
ACAGACGAAGGAGCCGCAAAGAAGTTATTAAGAGATGAATAATCTCTCAATATAAATATCTCTCACTTATTTAAA | Bacillus subtilis | Criterion met
ACAGACGAAGGAGCCGCAAAGAAGTTATTAAGGGATGACTAAACCCTCAATATAAATATCTCTCACTTATTTAAA | Bacillus subtilis | Criterion not met

Where do these numbers come from? They come from the supplement of paper PMC11780869.
